Each record here notes measured inhibition.
biological target: Metabotropic glutamate receptor 5 (Homo sapiens); experiment: Antagonist activity at mGluR5 (unknown origin) expressed in HEK cells assessed as inhibition of glutamate-induced increased intracellular calcium ion level at 1 uM after 18 hrs by fluorescence-based FDSS6000 assay; assay type: functional, cell-based; settings: HEK293
observable: inhibition (%)

structure=COc1ccc(-n2cnc3c(-c4ccccc4)csc3c2=O)cc1 units_label=% number=4.7
structure=COc1ccc(-n2cnc3c(-c4ccccc4C)csc3c2=O)cc1 units_label=% number=28.3
structure=COc1ccc(-n2cnc3c(-c4ccccc4F)csc3c2=O)cc1 units_label=% number=14.9
structure=C#CCNc1ccnc2sc3c(=O)n(-c4ccc(OC)cc4)cnc3c12 units_label=% number=30.9
